Experiment: in vivo
Conditions: rat
ASSAY ENDPOINT: bioavailability

Q) Which value of bioavailability has been reported for `CCN1CCN(c2nc(Nc3cccc(NC(=O)C#Cc4ccc(C)cc4)c3)c3ncn(CC)c3n2)CC1` in the records?
A) ~25%

These measurements were taken from patent US12246021B2.
